Recorded values, source paper PMC4336329.

- measured-on: human ether-à-go-go-related gene (hERG) potassium channel (human)
- assay-comment: primary screen, population patch clamp on CHO cells stably expressing hERG; higher = less effect of the substance
In all, about 310,000 compounds went through this assay and about 2,200 (0.71%) showed an effect of 50% or more. The effect is printed as a negative number. The list comes from a sample in which strong results are over-represented; it also holds close analogues and randomly drawn compounds.
A collection of molecules and their measured hERG current change (%, negative = inhibition) at 1uM
measured-property: hERG current change (%, negative = inhibition) at 1uM (%)

INSERT INTO assay_data (molecule, measured_on, recorded_number) VALUES
  ('Cc1cc(C)c[n+](-c2nc3ccccc3nc2[N-]S(=O)(=O)c2cccs2)c1', 'human ether-à-go-go-related gene (hERG) potassium channel (human)', 2.45),
  ('COc1ccc(/C=C2\SC(=S)N(N3CCOCC3)C2=O)c(OC)c1', 'human ether-à-go-go-related gene (hERG) potassium channel (human)', 10.2),
  ('CCOc1ccc2nc(NC(=O)Cc3cccs3)sc2c1', 'human ether-à-go-go-related gene (hERG) potassium channel (human)', 6.15),
  ('O=C1/C(=C2\C(=O)N(Cc3ccc(F)cc3)c3ccccc32)SC(=S)N1CCS(=O)(=O)O', 'human ether-à-go-go-related gene (hERG) potassium channel (human)', 10.6),
  ('O=C(Nc1nc(-c2ccccn2)cs1)c1ccc(F)c(S(=O)(=O)N2CCOCC2)c1', 'human ether-à-go-go-related gene (hERG) potassium channel (human)', 5.44),
  ('COC(=O)c1[nH]c2ccccc2c1NC(=O)CN1CCN(Cc2ccc3c(c2)OCO3)CC1', 'human ether-à-go-go-related gene (hERG) potassium channel (human)', -70.3),
  ('O=C(CSc1nnnn1-c1ccccc1)NCC1(N2CCCCC2)CCCCC1', 'human ether-à-go-go-related gene (hERG) potassium channel (human)', -23.9),
  ('O=C(NNC(=O)c1sc2cccc(Cl)c2c1Cl)Nc1ccccc1', 'human ether-à-go-go-related gene (hERG) potassium channel (human)', 13.9),
  ('O=C(CN1CCN(Cc2ccc3c(c2)OCO3)CC1)NCC(F)(F)F', 'human ether-à-go-go-related gene (hERG) potassium channel (human)', 11.2),
  ('COC(=O)c1[nH]c2ccc(Br)cc2c1NC(=O)C(C)N1CCN(C2CCCCC2)CC1 (stereo not shown)', 'human ether-à-go-go-related gene (hERG) potassium channel (human)', -82.6);

###

- measured-on: human ether-à-go-go-related gene (hERG) potassium channel (human, UniProt Q12809)
- Sequence (Q12809 whole entry, looked up): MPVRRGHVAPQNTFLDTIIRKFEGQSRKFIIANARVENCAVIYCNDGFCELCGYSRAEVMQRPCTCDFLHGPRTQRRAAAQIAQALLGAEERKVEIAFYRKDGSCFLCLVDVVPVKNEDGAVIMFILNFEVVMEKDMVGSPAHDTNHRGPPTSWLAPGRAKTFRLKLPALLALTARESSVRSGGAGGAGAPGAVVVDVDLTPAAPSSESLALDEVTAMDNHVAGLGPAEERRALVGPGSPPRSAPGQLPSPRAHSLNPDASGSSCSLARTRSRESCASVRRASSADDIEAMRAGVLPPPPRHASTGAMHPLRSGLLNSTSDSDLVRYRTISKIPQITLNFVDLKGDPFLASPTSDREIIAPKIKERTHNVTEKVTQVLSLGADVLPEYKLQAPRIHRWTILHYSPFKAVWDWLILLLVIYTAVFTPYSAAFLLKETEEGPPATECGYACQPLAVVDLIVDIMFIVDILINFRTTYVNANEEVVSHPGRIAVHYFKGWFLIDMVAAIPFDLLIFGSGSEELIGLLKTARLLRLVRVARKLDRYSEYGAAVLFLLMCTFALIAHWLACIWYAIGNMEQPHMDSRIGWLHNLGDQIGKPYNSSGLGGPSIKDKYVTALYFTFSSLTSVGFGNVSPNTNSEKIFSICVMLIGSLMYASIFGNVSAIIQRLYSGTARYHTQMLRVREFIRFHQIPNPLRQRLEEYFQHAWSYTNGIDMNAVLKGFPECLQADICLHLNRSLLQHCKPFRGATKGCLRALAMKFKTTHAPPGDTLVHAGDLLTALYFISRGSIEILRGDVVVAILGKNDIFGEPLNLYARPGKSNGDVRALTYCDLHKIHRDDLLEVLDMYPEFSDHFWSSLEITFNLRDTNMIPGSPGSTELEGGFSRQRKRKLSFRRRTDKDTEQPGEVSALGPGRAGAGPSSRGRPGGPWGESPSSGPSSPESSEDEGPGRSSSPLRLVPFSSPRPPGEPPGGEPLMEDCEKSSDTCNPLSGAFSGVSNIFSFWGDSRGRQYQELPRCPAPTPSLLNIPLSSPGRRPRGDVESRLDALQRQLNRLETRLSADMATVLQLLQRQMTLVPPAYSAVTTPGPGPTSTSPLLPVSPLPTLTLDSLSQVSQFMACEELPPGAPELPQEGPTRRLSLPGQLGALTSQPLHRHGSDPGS
- assay-comment: primary screen, population patch clamp on CHO cells stably expressing hERG; higher = less effect of the substance
Hit rate of the full screen: of about 310,000 compounds, about 2,200 (0.71%) showed an effect of 50% or more. The effect is printed as a negative number. For the sample, strong results were picked, then their nearest neighbours and some compounds at random.
measured-property: hERG current change (%, negative = inhibition) at 1uM (%)

INSERT INTO measurements (compound, measured_on, uom, recorded_number) VALUES
  ('CC(=O)N=c1c(C#N)cc2c(=O)n3ccccc3nc2n1CCCOC(C)C', 'human ether-à-go-go-related gene (hERG) potassium channel (human, UniProt Q12809)', '%', 8.03),
  ('CCOCCCn1c(=NC(C)=O)c(C#N)cc2c(=O)n3ccccc3nc21', 'human ether-à-go-go-related gene (hERG) potassium channel (human, UniProt Q12809)', '%', 11.7),
  ('COc1ccc(C2CC(=O)C(C=NCCN3CCN(C(=S)Nc4ccccc4)CC3)=C(O)C2)cc1OC (centres unmarked)', 'human ether-à-go-go-related gene (hERG) potassium channel (human, UniProt Q12809)', '%', 1.75),
  ('COc1ccc(C(C(O)C(=O)c2c[nH]c3ccccc23)N2CCN(c3ccc(OC)cc3)CC2)cc1 (centres unmarked)', 'human ether-à-go-go-related gene (hERG) potassium channel (human, UniProt Q12809)', '%', 2.28),
  ('COc1ccccc1N(CC(=O)NC1CCCC1)C(=O)CCC(=O)Nc1cc(C)on1', 'human ether-à-go-go-related gene (hERG) potassium channel (human, UniProt Q12809)', '%', 8.06),
  ('COc1ccc(C2CC(=O)C(C=NCCO)=C(O)C2)cc1OC (centres unmarked)', 'human ether-à-go-go-related gene (hERG) potassium channel (human, UniProt Q12809)', '%', 13.4),
  ('COc1cccc(C(=O)Nc2cccc(-c3nnc(-c4ccco4)o3)c2)c1', 'human ether-à-go-go-related gene (hERG) potassium channel (human, UniProt Q12809)', '%', -1.01),
  ('CCOC(=O)C(Cc1c(F)cccc1F)(NC(C)=O)C(=O)OCC', 'human ether-à-go-go-related gene (hERG) potassium channel (human, UniProt Q12809)', '%', 8.71),
  ('Cc1[nH]c(=O)[nH]c(=O)c1S(=O)(=O)Nc1cccc([N+](=O)[O-])c1C', 'human ether-à-go-go-related gene (hERG) potassium channel (human, UniProt Q12809)', '%', 11.5),
  ('CCN1CCN(C(c2ccc(OC)cc2)C(O)C(=O)c2c[nH]c3ccccc23)CC1 (centres unmarked)', 'human ether-à-go-go-related gene (hERG) potassium channel (human, UniProt Q12809)', '%', -64.4),
  ('COc1ccc(-c2cc3ccc(OCC(=O)NCC4CCC(C(=O)O)CC4)cc3oc2=O)cc1 (centres unmarked)', 'human ether-à-go-go-related gene (hERG) potassium channel (human, UniProt Q12809)', '%', 5.49),
  ('CCc1nnc(NC(=O)C(C)N2C(=O)C3C4C=CC(C4)C3C2=O)s1 (centres unmarked)', 'human ether-à-go-go-related gene (hERG) potassium channel (human, UniProt Q12809)', '%', 3.03),
  ('CCOC(=O)COc1ccc(N)cc1CC(NC(C)=O)(C(=O)OCC)C(=O)OCC', 'human ether-à-go-go-related gene (hERG) potassium channel (human, UniProt Q12809)', '%', -69.6),
  ('CCC(=O)N1CCN(CCN=CC2=C(O)CC(c3ccc(OC)cc3)CC2=O)CC1 (centres unmarked)', 'human ether-à-go-go-related gene (hERG) potassium channel (human, UniProt Q12809)', '%', 8.12);

###

- measured-on: human ether-à-go-go-related gene (hERG) potassium channel (human)
- assay-comment: primary screen, population patch clamp on CHO cells stably expressing hERG; higher = less effect of the substance
Among all 310,000 compounds or so, about 2,200 (0.71%) showed an effect of 50% or more. The effect is printed as a negative number. What follows is part of a selection rich in strong results, with near analogues and random picks from the rest.
measured-property: hERG current change (%, negative = inhibition) at 1uM (%)

INSERT INTO results (compound, recorded_number) VALUES
  ('O=C(c1ccco1)N1CCN(C(=O)C2CC(=O)N(c3ccccc3)C2)CC1 (centres unmarked)', -1.56),
  ('Cc1ccc(NC(=O)CN2CCC(NC(=O)c3cccc(F)c3)CC2)cc1C', -13.4),
  ('O=C(CN1CCCC1)Nc1ccc(OCc2ccccc2)cc1', 8),
  ('CCOC(=O)CNc1c(-c2ccccc2)nc2ccc(Cl)cn12', -27.6),
  ('COc1cc(/C=C2/SC(=S)N(CC(=O)O)C2=O)ccc1OC(=O)c1ccco1', 7.62),
  ('CN1CCN(C(c2ccc(C(F)(F)F)cc2)c2ccc3cccnc3c2O)CC1 (centres unmarked)', 7.36),
  ('COc1ccc(Cc2nnc(SCC(=O)Nc3ccc(C)c(Cl)c3)[nH]c2=O)cc1', 5.51),
  ('COc1ccc(NC(=S)Nc2ccc(OC)cc2OC)c(OC)c1', 17.8),
  ('O=C(O)c1ccc(NCc2ccc3c(c2)OCO3)cc1', 10.6),
  ('CC(C)c1ccc(N(CC(=O)Nc2ccc(S(=O)(=O)N3CCOCC3)cc2)S(C)(=O)=O)cc1', 21.3),
  ('O=C(CN1CCN(c2ccccc2)CC1)Nc1ccc(OCc2ccccc2)cc1', 13.4),
  ('COCCCNC(=O)c1cc2c(=O)n3cccc(C)c3nc2n(C(C)C)c1=N', -46.1),
  ('CCn1nnc2cc(C(=O)Nc3cc(OC)cc(OC)c3)ccc21', 19.3),
  ('COc1ccccc1S(=O)(=O)CC(O)COc1ccc(F)cc1Cl (centres unmarked)', 12.6),
  ('CCN(c1ccccc1)S(=O)(=O)c1ccc(F)cc1', 8.48),
  ('Cc1cc2nnn(-c3nnc(-c4ccccc4)c4ccccc34)c2cc1C', 5.53),
  ('COc1ccc(S(=O)(=O)N2CCN(C(=O)CN3C(=O)NC(C)(C)C3=O)CC2)cc1', 14),
  ('CCOC(=O)CNc1c(-c2ccc(O)cc2)nc2ccc(Cl)cn12.Cl', -13.3),
  ('Cc1cc(C(=O)CN2CCN(CC(=O)Nc3ccc(F)cc3)CC2)c(C)n1C1CC1', -72.3),
  ('Cc1cc(C)cc(NC(=O)CN2CCC(NC(=O)c3cccc(F)c3)CC2)c1', 4.29),
  ('CCOc1ccc(NC(=O)CN2CCN(C3c4ccccc4-c4ccccc43)CC2)cc1', -25.5),
  ('O=C1c2[nH]nc(-c3ccccc3O)c2C(c2ccc(F)cc2)N1Cc1ccco1 (centres unmarked)', 13.1),
  ('O=C(NCc1cccnc1)c1cccn2c(=O)c3sccc3nc12', -16.3),
  ('Cc1cccn2c(=O)c3cc(C(=O)NCc4cccnc4)c(=N)n(C(C)C)c3nc12', -67.3),
  ('Nc1nc(SCC(=O)c2cccs2)n[nH]1', 6.15),
  ('CCC(C)n1c(=N)c(C#N)cc2c(=O)n3cc(C)ccc3nc21 (centres unmarked)', -22),
  ('CSc1nn(-c2ccc(C(=O)OC(C(=O)NC(N)=O)C(C)C)cc2)c(=S)s1 (centres unmarked)', 9.82),
  ('CCOC(=O)CNc1c(-c2ccc(OC)cc2)nc2ccc(Cl)cn12', -68.4),
  ('Cc1cccc(C)c1NC(=O)CN1CCN(CC(=O)c2cc(C)n(C3CC3)c2C)CC1', -0.73);
